biological target: acetylcholine receptor; assay: SPR, receptor immobilized on CM5 chip, peptide 10 uM
ENDPOINT: Binding affinity (RU)

{"columns": ["BINDER", "ENDPOINT_RESULT"],
 "data": [
  ["RWFRRR [6mer-2-430]", 139]
]}

1: KRWLQK [6mer-1-328]
2: KKHMER [6mer-1-881]
3: RKATKR [6mer-1-898]
Reorder the items by Binding affinity (RU), least to greatest. Respond with an ordered listing of the labels, as requested. 2, 3, 1
(2: 20 RU, 3: 31 RU, 1: 151 RU)

P: KRRRKR [6mer-2-409]
Q: RRNAAK [6mer-1-916]
Of P and Q , whose reported Binding affinity (RU) is the larger number? Selection: enter the item's label. P

A: RRRRYR [6mer-1-282]
B: KRKDER [6mer-1-869]
Compare Binding affinity (RU): is it lower for A or for B ? Selection: enter the item's label. B
(B: 22 RU, A: 121 RU)

I: RRSILR [6mer-1-301]
II: KRYCPK [6mer-1-928]
Compare Binding affinity (RU): is it lower for I or for II ? Selection: enter the item's label. II

I: RKWISR [6mer-1-305]
II: KRINHR [6mer-1-887]
Compare Binding affinity (RU): is it lower for I or for II ? Selection: enter the item's label. II
